assay: mouse pharmacokinetics of Indi-199 by IV, IP and PO; assay type: in vivo; conditions: in vivo; mouse, 20 mg/kg IV bolus, 4 mg/mL in PBS
Where a SMILES comes first, the peptide text is derived from it. Bridges are numbered along the chain shown (N, C = ends). Triazole bridges read from a SMILES are 1,4-linked. [ ]: non-standard residue; d: D form. The star is where a group is joined. dPhe(4-Cl) = N[C@H](Cc1ccc(Cl)cc1)C(=O)O; Lys(N3) = [N-]=[N+]=NCCCC[C@H](N)C(=O)O; Morpholinoacetyl = O=C(CN1CCOCC1)*; Palmitoyl = CCCCCCCCCCCCCCCC(=O)*; Pra = C#CC[C@H](N)C(=O)O
test.readout: Cmax (µM)
The figure you give is taken to be in µM; do not add the unit.

State its Cmax for this compound: CCCCCCCCCCCCCCCC(=O)NCCCC[C@H](NC(=O)[C@@H]1CCCCn2cc(nn2)C[C@H](NC(=O)CN2CCOCC2)C(=O)N[C@H](Cc2c[nH]c3ccccc23)C(=O)N[C@H](CCCCN)C(=O)N[C@H](Cc2ccc(O)cc2)C(=O)N[C@H](Cc2ccc(Cl)cc2)C(=O)N1)C(N)=O [Indi-199] (Morpholinoacetyl-[Pra][dW][dK][dY][dPhe(4-Cl)][Lys(N3)]K(Palmitoyl)-NH2; triazole 1-6)
252

---

experiment: mouse pharmacokinetics of Indi-199 by IV, IP and PO; type: in vivo; details: in vivo; mouse, 20 mg/kg IV bolus, 4 mg/mL in PBS
Where a SMILES comes first, the peptide text is derived from it. Bridges are numbered along the chain shown (N, C = ends). Triazole bridges read from a SMILES are 1,4-linked. [ ]: non-standard residue; d: D form. The star is where a group is joined. dPhe(4-Cl) = N[C@H](Cc1ccc(Cl)cc1)C(=O)O; Lys(N3) = [N-]=[N+]=NCCCC[C@H](N)C(=O)O; Morpholinoacetyl = O=C(CN1CCOCC1)*; Palmitoyl = CCCCCCCCCCCCCCCC(=O)*; Pra = C#CC[C@H](N)C(=O)O
test.readout: Tmax

Check the records and state Tmax for CCCCCCCCCCCCCCCC(=O)NCCCC[C@H](NC(=O)[C@@H]1CCCCn2cc(nn2)C[C@H](NC(=O)CN2CCOCC2)C(=O)N[C@H](Cc2c[nH]c3ccccc23)C(=O)N[C@H](CCCCN)C(=O)N[C@H](Cc2ccc(O)cc2)C(=O)N[C@H](Cc2ccc(Cl)cc2)C(=O)N1)C(N)=O [Indi-199] (Morpholinoacetyl-[Pra][dW][dK][dY][dPhe(4-Cl)][Lys(N3)]K(Palmitoyl)-NH2; triazole 1-6)
0 h

---

experiment: mouse pharmacokinetics of Indi-199 by IV, IP and PO; assay type: in vivo; details: in vivo; mouse, 50 mg/kg PO, 5 mg/mL in PBS
Where a SMILES comes first, the peptide text is derived from it. Bridges are numbered along the chain shown (N, C = ends). Triazole bridges read from a SMILES are 1,4-linked. [ ]: non-standard residue; d: D form. The star is where a group is joined. dPhe(4-Cl) = N[C@H](Cc1ccc(Cl)cc1)C(=O)O; Lys(N3) = [N-]=[N+]=NCCCC[C@H](N)C(=O)O; Morpholinoacetyl = O=C(CN1CCOCC1)*; Palmitoyl = CCCCCCCCCCCCCCCC(=O)*; Pra = C#CC[C@H](N)C(=O)O
test.readout: AUC(0-t) (µM·h)
Entry rule: numbers only, all in µM·h.

Answer with reported AUC(0-t) of CCCCCCCCCCCCCCCC(=O)NCCCC[C@H](NC(=O)[C@@H]1CCCCn2cc(nn2)C[C@H](NC(=O)CN2CCOCC2)C(=O)N[C@H](Cc2c[nH]c3ccccc23)C(=O)N[C@H](CCCCN)C(=O)N[C@H](Cc2ccc(O)cc2)C(=O)N[C@H](Cc2ccc(Cl)cc2)C(=O)N1)C(N)=O [Indi-199] (Morpholinoacetyl-[Pra][dW][dK][dY][dPhe(4-Cl)][Lys(N3)]K(Palmitoyl)-NH2; triazole 1-6)
0.182
